Values from paper PMC4601788

Can you tell me Kd for the items I'm about to list?
TESTED_SYSTEM: rLiPABP (poly(A)-binding protein) (Leishmania infantum) (UniProt A4IBV3)
ASSAY_SUMMARY: ELONA
One number for each entry, in nM.

Recorded results for 2 sequences are shown here.
[
  {
    "SEQUENCE": "GCGGATGAAGACTGGTGTCCAGAGTGAACACAAAGAAATTGAAATACGTAAGCTCCGGGCCCTAAATACGAGCAAC [ApPABP#7]",
    "DISPLAY_UNIT": "nM",
    "Kd": 6
  },
  {
    "SEQUENCE": "GCGGATGAAGACTGGTGTGGACAGTTCTACGAGGATTACGCTGTTACTAAGTGTGGGGGCCCTAAATACGAGCAAC [ApPABP#3]",
    "DISPLAY_UNIT": "nM",
    "Kd": 5.4
  }
]

Now examine the next entry.
stdin: Recall the reported Kd of GTTGCTCGTATTTAGGGCGGCCCCCTCCTCCCTCCCCCACCCGACACTATTCCCCCCCACACCAGTCTTCATCCGC [ApPABP#11] on rLiPABP (poly(A)-binding protein) (Leishmania infantum) (UniProt A4IBV3) and write it down.
stdout: 10.8
